Target: T1, Full length GST-AL1 1-352 (tomato golden mosaic virus (TGMV), UniProt P03567 1-352)
T1 sequence: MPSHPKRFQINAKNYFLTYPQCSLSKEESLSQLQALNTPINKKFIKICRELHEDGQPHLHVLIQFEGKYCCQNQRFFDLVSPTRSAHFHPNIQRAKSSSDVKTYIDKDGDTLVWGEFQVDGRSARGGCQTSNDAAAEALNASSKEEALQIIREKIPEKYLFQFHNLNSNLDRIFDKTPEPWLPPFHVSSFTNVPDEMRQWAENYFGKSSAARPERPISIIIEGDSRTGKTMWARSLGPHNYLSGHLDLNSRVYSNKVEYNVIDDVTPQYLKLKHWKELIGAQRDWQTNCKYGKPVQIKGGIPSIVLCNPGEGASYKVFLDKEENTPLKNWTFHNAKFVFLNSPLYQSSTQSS
Assay: GST co-purification from insect cells, immunoblot
endpointName: binding result

binder	endpointResult
AL1 K-E179 (Ala10), full length, untagged (other) MPSHPKRFQINAKNYFLTYPQCSLSKEESLSQLQALNTPINKKFIKICRELHEDGQPHLHVLIQFEGKYCCQNQRFFDLVSPTRSAHFHPNIQRAKSSSDVKTYIDKDGDTLVWGEFQVDGRSARGGCQTSNDAAAEALNASSKEEALQIIREKIPEKYLFQFHNLNSNLDRIFDATPAPWLPPFHVSSFTNVPDEMRQWAENYFGKSSAARPERPISIIIEGDSRTGKTMWARSLGPHNYLSGHLDLNSRVYSNKVEYNVIDDVTPQYLKLKHWKELIGAQRDWQTNCKYGKPVQIKGGIPSIVLCNPGEGASYKVFLDKEENTPLKNWTFHNAKFVFLNSPLYQSSTQSS	binds
AL1 Q-HN165 (Ala8), full length, untagged (other) MPSHPKRFQINAKNYFLTYPQCSLSKEESLSQLQALNTPINKKFIKICRELHEDGQPHLHVLIQFEGKYCCQNQRFFDLVSPTRSAHFHPNIQRAKSSSDVKTYIDKDGDTLVWGEFQVDGRSARGGCQTSNDAAAEALNASSKEEALQIIREKIPEKYLFAFAALNSNLDRIFDKTPEPWLPPFHVSSFTNVPDEMRQWAENYFGKSSAARPERPISIIIEGDSRTGKTMWARSLGPHNYLSGHLDLNSRVYSNKVEYNVIDDVTPQYLKLKHWKELIGAQRDWQTNCKYGKPVQIKGGIPSIVLCNPGEGASYKVFLDKEENTPLKNWTFHNAKFVFLNSPLYQSSTQSS	binds
AL1 134-352 (other) AAAEALNASSKEEALQIIREKIPEKYLFQFHNLNSNLDRIFDKTPEPWLPPFHVSSFTNVPDEMRQWAENYFGKSSAARPERPISIIIEGDSRTGKTMWARSLGPHNYLSGHLDLNSRVYSNKVEYNVIDDVTPQYLKLKHWKELIGAQRDWQTNCKYGKPVQIKGGIPSIVLCNPGEGASYKVFLDKEENTPLKNWTFHNAKFVFLNSPLYQSSTQSS	binds
